The measurements presented in this section are drawn from patent US20240043427A1.

The compounds listed here are annotated with their EC50.
Target: CD73 (Homo sapiens (Human), UniProt P21589)
Sequence (P21589 27-574): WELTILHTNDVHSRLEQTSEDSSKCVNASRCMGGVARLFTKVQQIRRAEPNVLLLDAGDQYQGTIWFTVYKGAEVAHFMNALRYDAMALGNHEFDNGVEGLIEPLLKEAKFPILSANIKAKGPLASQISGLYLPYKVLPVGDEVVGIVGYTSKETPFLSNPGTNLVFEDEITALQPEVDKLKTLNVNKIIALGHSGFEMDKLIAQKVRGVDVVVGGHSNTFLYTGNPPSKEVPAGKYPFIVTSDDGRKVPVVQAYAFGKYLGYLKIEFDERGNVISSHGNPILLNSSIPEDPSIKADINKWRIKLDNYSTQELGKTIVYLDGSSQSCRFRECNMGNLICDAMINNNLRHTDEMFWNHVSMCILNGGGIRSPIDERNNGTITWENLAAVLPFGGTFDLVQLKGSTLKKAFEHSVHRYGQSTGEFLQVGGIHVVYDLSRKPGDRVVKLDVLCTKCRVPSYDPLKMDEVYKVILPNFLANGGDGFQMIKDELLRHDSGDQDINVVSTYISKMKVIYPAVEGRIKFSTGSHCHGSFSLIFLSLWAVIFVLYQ
Assay: MDA-MB-231 Cell Based CD73 Activity Assay (DMEM)
Conditions: MDA-MB-231-GFP cells, DMEM medium with 10% human plasma, 200 uM AMP

{"columns": ["COMPOUND", "EC50 [µM]"],
 "data": [
  ["CC1(C)CN(c2cc(-c3c[nH]c(=O)[nH]c3=O)nn3ccnc23)CC1(F)F", 0.00679],
  ["O=c1[nH]cc(-c2cc(N3C[C@H](Oc4ccc(OC(F)(F)C(F)(F)F)cn4)C(F)(F)C3)c3nccn3n2)c(=O)[nH]1", 0.0159],
  ["O=c1[nH]cc(-c2cc(N3C[C@H](Oc4ccccn4)C(F)(F)C3)c3nccn3n2)c(=O)[nH]1", 0.00209],
  ["O=c1[nH]cc(-c2cc(N3CC(F)(F)C4(CC4)C3)c3ncnn3n2)c(=O)[nH]1", 0.00656],
  ["COC(=O)c1cccc(C2CCN(c3cc(-c4c[nH]c(=O)[nH]c4=O)nn4ccnc34)C2)c1 (centres unmarked)", 0.088],
  ["O=c1[nH]cc(-c2cc(N3CCC4(CCOCC4)C3)c3nccn3n2)c(=O)[nH]1", 0.0362],
  ["C[C@H]1CN(c2cc(-c3c[nH]c(=O)[nH]c3=O)nn3ccnc23)CC1(F)F", 0.0128],
  ["CC(C)NC(=O)CCC(F)(F)COc1cc(-c2c[nH]c(=O)[nH]c2=O)nn2ccnc12", 0.00967]
]}
